test: Half life in human hepatocytes by NMR analysis; format: ADME, cell-based, Hepatocyte
measure.name: half-life

- smiles.entry: "C=CCOC(=O)[C@H]1O[C@@H](OC(=O)c2ccc(-n3cccn3)c([C@H](C)Oc3cc4cc(F)cc(F)c4nc3N)c2)[C@H](O)[C@@H](O)[C@@H]1O"
  test.result: "2.18 h"

----------
experiment: Unbound fraction in human plasma; assay type: ADME, cell-free
Below, each entry is listed alongside its reported fraction unbound.
measure.name: fraction unbound

- molecule: "C[C@H](Oc1cc2cc(F)cc(F)c2nc1N)c1cc(C(=O)O)ccc1-n1cccn1"
  test.result: 0.027
- molecule: "C[C@H](Oc1cc2cc(F)ccc2nc1N)c1[nH]c(=O)ccc1-n1cccn1 [PF-07059013]"
  test.result: 0.162
